# Tested on: P. falciparum 3D7 growth, pLDH absorbance
# assay-name: blood-stage malaria parasite growth potency – strain 3D7, dose response (AID 2305)
What pIC50 was measured for each of the following?
Answers are plain numbers, as −log10 of the molar value.

Answered cases to consult:
{"compound": "CC(C)(C)c1ccc(CNC(=O)c2ccc(-c3nc4ccc(Cl)cc4[nH]3)cc2)cc1", "pIC50": 6.09}
{"compound": "C[C@H](Cc1ccc(CCc2ccc(C[C@@H](C)NC[C@H](O)c3cccc(Cl)c3)cc2)cc1)NC[C@H](O)c1cccc(Cl)c1", "pIC50": 6.03}
{"compound": "O=C(Nc1cc(Cl)ccc1O)c1cc(-c2ccccc2O)no1", "pIC50": 5.96}

For each of the compounds below, note its pIC50.
1. Nc1nc(N)c2cc3ccc(OCc4ccccc4)cc3nc2n1
2. CC[C@H]1CN2CC[C@H]1C[C@@H]2[C@@H](O)c1ccnc2ccccc12
3. N=c1c2c(n(Cc3ccccc3)c3c1CCC3)CCCC2

[6.49, 6.55, 6.06]

Batch: pIC50 for all items listed.
1. CC(C)N1CCN(C(CN2CCN(CCCOc3ccccc3-c3ccccc3)CC2)c2ccc(F)cc2)CC1 (stereo not given)
2. Cc1ccc(-c2noc(COc3ccccc3C(=O)NC3CCCC3)n2)cc1
3. CCOc1cc(Br)c(C(C)NC(=O)c2ccccc2)cc1OCC (stereo not given)
4. Cc1cccc2[nH]c(-c3cccc(-c4ccc(CN5CCN(CCO)CC5)cc4)c3)nc12

1: 6.10; 2: 6.06; 3: 6.07; 4: 6.09

Batch request: pIC50 for each of the following compounds.
1. CC(C)(C)c1ccc(NC(=O)c2ccc(CN3CCCN(Cc4cccc(F)c4)CC3)cc2)cc1
2. Cc1cc(N2CCC(C)CC2)nc2cc(O)ccc12

1. 5.95
2. 5.93

====

For each entry below, report its pIC50 value.
# System: P. falciparum 3D7 growth, pLDH absorbance
# assay-name: blood-stage malaria parasite growth potency – strain 3D7, dose response (AID 2305)
Numbers only, as −log10 of the molar value.

Record excerpt, results attached:
{"compound": "O=C(Nc1ccc(CN2CCOCC2)cc1)c1ccc(-c2ccc(Br)cc2)o1", "measured-on": "P. falciparum 3D7 growth, pLDH absorbance", "pIC50": 5.95}
{"compound": "N#CC(c1ccc(Br)cc1)c1ccc2c(C(F)(F)F)cc(C(F)(F)F)nc2n1 (stereo not given)", "measured-on": "P. falciparum 3D7 growth, pLDH absorbance", "pIC50": 6.36}

I need pIC50 for every entry listed below, if you could help.
1. O=C(NC1CCCC1)c1ccc(N2CCC(NCc3cc4cc(Cl)ccc4[nH]3)CC2)cc1
2. CC(C)CCN1CCCN(Cc2cccc(NC(=O)c3cc4ccccc4s3)c2)CC1
3. Cc1ccc(CNC(=O)c2cnc(N3CCN(c4ccncc4)CC3)c(Cl)c2)cc1
4. O=C(NCCNc1noc(-c2sccc2Br)n1)c1ccc(Cl)cc1

5.91
6.04
5.89
5.93

====

# Test system: P. falciparum 3D7 growth, pLDH absorbance
# assay-name: blood-stage malaria parasite growth potency – strain 3D7, dose response (AID 2305)
Could you please mark 1 (yes) for values of IC50 below 900 nM and 0 (no) for values at or above it?

{"molecule": "COc1ccc(S(=O)(=O)NCCCC2CCN(CCCCCNC(=O)C=Cc3ccc(Cl)c(Cl)c3)CC2)cc1", "measured-on": "P. falciparum 3D7 growth, pLDH absorbance", "group": "0 (no)"}
{"molecule": "CC(=O)c1cccc(Nc2nc3c(C#N)c(OCc4cc(Cl)cc(Cl)c4)ccc3[nH]2)c1", "measured-on": "P. falciparum 3D7 growth, pLDH absorbance", "group": "1 (yes)"}
{"molecule": "Cc1cc(NCCC(=O)NCCOc2ccccc2)nc(NCCc2ccccc2)n1", "measured-on": "P. falciparum 3D7 growth, pLDH absorbance", "group": "0 (no)"}
{"molecule": "O=c1cc(NCCCNCc2ccc(C(F)(F)F)s2)[nH]c2ccccc12", "measured-on": "P. falciparum 3D7 growth, pLDH absorbance", "group": "1 (yes)"}
{"molecule": "CC(Cc1ccc(CNC(=O)NCc2ccc(CC(C)NCCc3cccc(Cl)c3)cc2)cc1)NCCc1cccc(Cl)c1 (stereo not given)", "measured-on": "P. falciparum 3D7 growth, pLDH absorbance", "group": "1 (yes)"}

Here's an entry: `COc1ccc(CCNCCCCCCNCCc2ccc(Cl)c(Cl)c2)cc1OC` . Is its IC50 below 900 nM?
0 (no)

Does this molecule meet the criterion IC50 < 900 nM? `COc1ccc(Nc2ncc3c(-c4cccc(NC(=O)CC(C)C)c4)c[nH]c3n2)cc1OC`
1 (yes)

# TODO verify IC50 < 900 nM strictly for this molecule: `O=C(Nc1cc2cc(-c3ccc(CN4CCCCC4)cc3)ccc2n2cnnc12)NC1CCCC1`
0 (no)

Lab log: compare recorded IC50 with 900 nM; is it strictly lower for `O=C(Nc1ccc(C(F)(F)F)cc1)c1ccc(NCCCN2CCCCCC2)c([N+](=O)[O-])c1` ?
1 (yes)

Is it true that IC50 reported for `CC1CCN(c2nc(C(=O)Nc3cccc4c3CCCC4)c(C(C)C)s2)CC1` is less than 900 nM?
0 (no)

IC50 strictly < 900 nM for this molecule? `CN1CCN(c2ccc(Nc3c(C(N)=O)cnc4cc(-c5ccoc5)ccc34)cc2)CC1`
1 (yes)

Would you kindly verify if IC50 of `Cc1cc2c(cc1C(F)(F)F)N(C(=O)Nc1cc(C(=O)NCCN(C)C)cc(C(F)(F)F)c1)CC2` is strictly less than 900 nM?
1 (yes)

A record lists `COc1ccc(-c2cc(C(=O)Nc3ccc(CCCN(C)Cc4ccc(OC)c(OC)c4)cc3)c3ccccc3n2)cc1` . Is its IC50 below 900 nM?
1 (yes)
